- TESTED SYSTEM: human CD71 on cells (SKBR3; SW620-rLuc-KRAS) (human, UniProt P02786 1-760)
- Sequence (P02786 whole entry): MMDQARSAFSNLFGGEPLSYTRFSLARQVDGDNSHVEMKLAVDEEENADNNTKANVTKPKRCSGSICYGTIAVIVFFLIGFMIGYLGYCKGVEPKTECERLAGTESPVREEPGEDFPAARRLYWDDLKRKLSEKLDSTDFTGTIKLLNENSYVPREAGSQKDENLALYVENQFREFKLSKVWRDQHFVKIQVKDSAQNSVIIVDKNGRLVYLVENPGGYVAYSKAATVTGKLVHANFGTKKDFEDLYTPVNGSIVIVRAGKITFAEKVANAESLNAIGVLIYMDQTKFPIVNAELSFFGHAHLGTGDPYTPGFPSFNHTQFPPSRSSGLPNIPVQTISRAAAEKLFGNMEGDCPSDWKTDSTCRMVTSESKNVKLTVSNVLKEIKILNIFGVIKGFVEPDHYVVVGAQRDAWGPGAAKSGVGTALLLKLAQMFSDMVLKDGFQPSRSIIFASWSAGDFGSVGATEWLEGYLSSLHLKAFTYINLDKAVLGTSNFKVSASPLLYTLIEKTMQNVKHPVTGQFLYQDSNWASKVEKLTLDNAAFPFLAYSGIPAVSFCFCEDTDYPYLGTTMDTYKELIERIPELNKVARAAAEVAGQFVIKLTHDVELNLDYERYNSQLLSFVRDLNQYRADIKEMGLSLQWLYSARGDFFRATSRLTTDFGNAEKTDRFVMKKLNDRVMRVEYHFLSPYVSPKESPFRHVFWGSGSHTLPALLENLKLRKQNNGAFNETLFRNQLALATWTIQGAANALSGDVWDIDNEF
- TEST DESCRIPTION: cell-based or functional assay
Please provide measured LSA EC50 (luciferase reporter assay, SW620-rLuc-KRAS cells, 72 h) for the entries that follow.
Entry rule: numbers only, all in nM.

Data request: For the binder shown here, CD71-binding FN3 domain of SEQ ID NO: 478 conjugated to KRAS2 siRNA (designed binder, conjugated to KRAS2 tool siRNA; site and linker not stated) MLPAPKNLVVSRVTEDSARLSWTAPDAAFDSFFIGYLEPQPPGEAIHLYVPGSERSYDLTGLKPGTEYNVTIQGVKGGFPSVPLIAKFTT , give the reported LSA EC50 (luciferase reporter assay, SW620-rLuc-KRAS cells, 72 h).
Data returned: 0.21

Data request: For the binder shown here, CD71-binding FN3 domain of SEQ ID NO: 447 conjugated to KRAS2 siRNA (designed binder, conjugated to KRAS2 tool siRNA; site and linker not stated) MLPAPKNLVVSRVTEDSARLSWTAPDAAFDSFFIGYLEPQPPGEAIYLYVPGSERSYDLTGLKPGTEYNVTIQGVKGGFPSYPLTAQFTT , give the reported LSA EC50 (luciferase reporter assay, SW620-rLuc-KRAS cells, 72 h).
Data returned: 0.53

Data request: For the binder shown here, CD71-binding FN3 domain of SEQ ID NO: 472 conjugated to KRAS2 siRNA (designed binder, conjugated to KRAS2 tool siRNA; site and linker not stated) MLPAPKNLVVSRVTEDSARLSWTAPDAAFDSFFIGYLEPQPPGEAIELYVPGSERSYDLTGLKPGTEYNVTIQGVKGGFPSLPLVATFTT , give the reported LSA EC50 (luciferase reporter assay, SW620-rLuc-KRAS cells, 72 h).
Data returned: 0.15

Data request: For the binder shown here, CD71-binding FN3 domain of SEQ ID NO: 400 conjugated to KRAS2 siRNA (designed binder, conjugated to KRAS2 tool siRNA; site and linker not stated) MLPAPKNLVVSRVTEDSARLSWTAPDAAFDSFFIGYLEPQPPGEAIHLFVPGSERSYDLTGLKPGTEYNVTIQGVKGGFPSGPLHATFTT , give the reported LSA EC50 (luciferase reporter assay, SW620-rLuc-KRAS cells, 72 h).
Data returned: 0.24

Where do the numbers come from? From patent US20260151494A1.
